Where these numbers come from: patent US20180148477A1

- target desc: rh integrin α4β7 (R&D Systems #5397-A30) (human) (UniProt P13612)
- method description: competition ELISA vs MAdCAM-1
Bridge positions count the residues as written; N and C are the ends. Square brackets hold non-standard residues; d marks the D form. Bip = N[C@@H](Cc1ccc(-c2ccccc2)cc1)C(=O)O; 1Nal = N[C@@H](Cc1cccc2ccccc12)C(=O)O; 2Nal = N[C@@H](Cc1ccc2ccccc2c1)C(=O)O; NMeR = CN[C@@H](CCCNC(=N)N)C(=O)O; Pen = CC(C)(S)[C@H](N)C(=O)O; dNMeK = CN[C@H](CCCCN)C(=O)O
Listed here are binders together with their documented IC50.

The examples below pair each entry with its known result.
binder | IC50
Ac-[Pen][NMeR]SDTL[Pen][2Nal][dE][dK]-NH2 (disulfide 1-7; SMILES CC(=O)N[C@@H]1C(=O)N(C)[C@@H](CCCNC(=N)N)C(=O)N[C@@H](CO)C(=O)N[C@@H](CC(=O)O)C(=O)N[C@@H]([C@@H](C)O)C(=O)N[C@@H](CC(C)C)C(=O)N[C@H](C(=O)N[C@@H](Cc2ccc3ccccc3c2)C(=O)N[C@H](CCC(=O)O)C(=O)N[C@H](CCCCN)C(N)=O)C(C)(C)SSC1(C)C) [SEQ ID NO: 9] | > 10 nM
Ac-[Pen][NMeR]SDTL[Pen][1Nal]E[dK]-NH2 (disulfide 1-7; also: dimer via DIG) [SEQ ID NO: 24] | < 10 nM
Ac-[Pen][NMeR]SDTL[Pen][1Nal][dE][dNMeK]-NH2 (disulfide 1-7; also: dimer via DIG) [SEQ ID NO: 38] | < 10 nM

Please examine the following record next.
I'd like to know its IC50. The binder in question is Ac-[Pen][NMeR]SDTL[Pen][Bip]E[dK]-NH2 (disulfide 1-7 (inferred); also: homodimer via DIG) [SEQ ID NO: 134]
< 10 nM
